Experiment: gradient 5% acetonitrile 3 min, to 50% in 2 min, to 85% in 15 min, held 3 min, 100 µL/min
Details: column: Zorbax Extend-C18 2.1 x 50 mm; eluents: water / acetonitrile, 0.1% formic acid
yes (1) means recorded RP-LC retention time is 1000 s or above; no (0) means it is below 1000 s.

Q. Please check the record CC(C)C(NC(=O)C1CCCN(S(=O)(=O)Cc2ccccc2)C1)C(C)C (stereo not given) and state if its RP-LC retention time is at or above 1000 s.
A. no (0)

Q. Same for O=C(NCCOc1ccc2nnc(-c3ccccc3Cl)n2n1)c1cccs1
A. no (0)

Q. Same for O=C1COc2cc(S(=O)(=O)N3CCCC3C(=O)NCCN3CCCCCC3)c(Cl)cc2N1 (stereo not given)
A. no (0)

Q. Same for Cc1ccc(CSc2nnc(-c3ccccc3Cl)o2)cc1
A. yes (1)
